- measurement_description: Serum stability assay (RP-HPLC)
- Format: in vitro ADME
- particulars: mouse, time 1.5 (unit inferred), replicate 2, read-out: Fraction of peptide remaining, Supplementary Figure 5
- Procedure: The stability of candidate peptides was investigated following procedure. […] Ice-cold acetonitrile was added to terminate the reaction. Vortex and stand for 1 min, deionized water with 1% TFA was added to the mixture to further terminate the reaction. Mixtures were then centrifuged (13,000g, 10 min) to obtain the supernatant. RP-HPLC-MS was applied to analysis the content of candidate peptides. The serum stability of candidate peptides was represented as the retention rate of each peptide.
No end group written: not given here.
measurement_type: remaining at 1.5 h, 5 mM (%)
Quick note: give the figure in %, leave out the unit.

Give the measured remaining at 1.5 h, 5 mM of PGLYYFD-NH2 (C-terminus assumed) [Pep70] .
82.6

Source: paper PMC7669869
